- Test system: Mus musculus
- assayOverview: In vivo antimalarial activity against Plasmodium yoelii in mice (Mus musculus) at 96 mg/kg/day orally on day 4 expressed as percent suppression
- Format: functional
- cond: route oral
Parameter: Suppression. Scope: all listed entries.
readoutLabel: Suppression (%)

1) C=C(c1ccc(-c2ccccc2)cc1)C1COC2(CCC(Nc3ccc(OC)cc3)CC2)OO1 (configuration not stated) : 94
2) C=C(c1ccccc1)C1COC2(CCC(Nc3ccc(OC)cc3)CC2)OO1 (configuration not stated) : 93
3) C=C(c1ccc(-c2ccccc2)cc1)C1COC2(CCC(Nc3cc(Cl)cc(Cl)c3)CC2)OO1 (configuration not stated) : 65
4) C=C(c1ccccc1)C1COC2(CCC(Nc3cc(Cl)cc(Cl)c3)CC2)OO1 (configuration not stated) : 100
5) C=C(c1ccccc1)C1COC2(CCC(=O)CC2)OO1 (configuration not stated) : 7
6) C=C(c1ccccc1)C1COC2(CCC(Nc3cccc4ccccc34)CC2)OO1 (configuration not stated) : 100
7) C=C(c1ccccc1)C1COC2(CCC(Nc3ccc(NC(C)=O)cc3)CC2)OO1 (configuration not stated) : 77
8) C=C(c1ccc(-c2ccccc2)cc1)C1COC2(CCC(Nc3ccccc3)CC2)OO1 (configuration not stated) : 100
9) C=C(c1ccc(-c2ccccc2)cc1)C1COC2(CCC(=O)CC2)OO1 (configuration not stated) : 92
10) C=C(c1ccc(-c2ccccc2)cc1)C1COC2(CCC(Nc3ccc(NC(C)=O)cc3)CC2)OO1 (configuration not stated) : 49
11) C=C(c1ccc(-c2ccccc2)cc1)C1COC2(CCC(Nc3cccc4ccccc34)CC2)OO1 (configuration not stated) : 100
12) C=C(c1ccccc1)C1COC2(CCC(Nc3ccccc3)CC2)OO1 (configuration not stated) : 95
